All values here come from PubChem BioAssay AID1963446.

Reported values of viability, T/C for individual entries
system: 993429-296-R-J1-PDC complex spheroid growth, percent test/control; assay: Anticancer human tumor 993429-296-R-J1-PDC patient-derived uterine sarcoma cell line growth inhibition [Asc]; conditions: second compound 0.316 µM; first compound 0.316 µM; hits give low values;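 further: spheroids exposed to compounds for seven days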
Give a bare numeral; the unit % is implied.

Sample answers from the record:
compound: C#Cc1c(F)ccc2cc(O)cc(-c3ncc4c(N5CC6CCC(C5)N6)nc(OCC56CCCN5CC(F)C6)nc4c3F)c12 (stereo not given) + Cc1c(S(C)(=O)=O)c(-c2cc(F)cc(N3CCN(c4ccc(NS(=O)(=O)c5ccc(NC(CCN6CCC(C(=O)OCCCP(=O)(O)O)CC6)CSc6ccccc6)c(S(=O)(=O)C(F)(F)F)c5)cc4)CC3)c2)c(-c2ccc(Cl)cc2)n1C(C)C
endpoint label: viability, T/C
measurement units: %
observed result: 66.5

compound: COc1c(OCCCN2CCOCC2)ccc2c3n(c(=NC(=O)c4cnc(N)nc4)nc12)CCN3 + Cc1c(S(C)(=O)=O)c(-c2cc(F)cc(N3CCN(c4ccc(NS(=O)(=O)c5ccc(NC(CCN6CCC(C(=O)OCCCP(=O)(O)O)CC6)CSc6ccccc6)c(S(=O)(=O)C(F)(F)F)c5)cc4)CC3)c2)c(-c2ccc(Cl)cc2)n1C(C)C
endpoint label: viability, T/C
measurement units: %
observed result: 0.88

compound: C=C(F)C(=O)N1CCN(c2nc(OCC3CCCN3C)nc3c2CCN(c2cccc4cccc(Cl)c24)C3)CC1CC#N (stereo not given) + CNC(C)C(=O)NC1CN(S(=O)(=O)c2cccc(S(=O)(=O)N3CCC4CCC(C(=O)NC(c5ccccc5)c5ccccc5)N4C(=O)C(NC(=O)C(C)NC)C3)c2)CCC2CCC(C(=O)NC(c3ccccc3)c3ccccc3)N2C1=O
endpoint label: viability, T/C
measurement units: %
observed result: 40.3

compound: O=C(c1ccc(F)c(F)c1Nc1ccc(I)cc1F)N1CC(O)([C@@H]2CCCCN2)C1 + Cc1c(S(C)(=O)=O)c(-c2cc(F)cc(N3CCN(c4ccc(NS(=O)(=O)c5ccc(NC(CCN6CCC(C(=O)OCCCP(=O)(O)O)CC6)CSc6ccccc6)c(S(=O)(=O)C(F)(F)F)c5)cc4)CC3)c2)c(-c2ccc(Cl)cc2)n1C(C)C
endpoint label: viability, T/C
measurement units: %
observed result: 1.67

compound: COc1c(OCCCN2CCOCC2)ccc2c3n(c(=NC(=O)c4cnc(N)nc4)nc12)CCN3 + CNC(C)C(=O)NC1CN(S(=O)(=O)c2cccc(S(=O)(=O)N3CCC4CCC(C(=O)NC(c5ccccc5)c5ccccc5)N4C(=O)C(NC(=O)C(C)NC)C3)c2)CCC2CCC(C(=O)NC(c3ccccc3)c3ccccc3)N2C1=O
endpoint label: viability, T/C
measurement units: %
observed result: 3.2

### Prompt Write viability, T/C of C#Cc1c(F)ccc2cc(O)cc(-c3ncc4c(N5CC6CCC(C5)N6)nc(OCC56CCCN5CC(F)C6)nc4c3F)c12 (stereo not given) + CNC(C)C(=O)NC1CN(S(=O)(=O)c2cccc(S(=O)(=O)N3CCC4CCC(C(=O)NC(c5ccccc5)c5ccccc5)N4C(=O)C(NC(=O)C(C)NC)C3)c2)CCC2CCC(C(=O)NC(c3ccccc3)c3ccccc3)N2C1=O ; system used: 993429-296-R-J1-PDC complex spheroid growth, percent test/control;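 further: spheroids exposed to compounds for seven days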
### Response 43.3

### Prompt Write viability, T/C of C=CC(=O)N1CCN(c2nc(=O)n(-c3c(C)ccnc3C(C)C)c3nc(-c4c(O)cccc4F)c(F)cc23)C(C)C1 (stereo not given) + CNC(C)C(=O)NC1CN(S(=O)(=O)c2cccc(S(=O)(=O)N3CCC4CCC(C(=O)NC(c5ccccc5)c5ccccc5)N4C(=O)C(NC(=O)C(C)NC)C3)c2)CCC2CCC(C(=O)NC(c3ccccc3)c3ccccc3)N2C1=O ; system used: 993429-296-R-J1-PDC complex spheroid growth, percent test/control;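 further: spheroids exposed to compounds for seven days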
### Response 60.6

### Prompt Write viability, T/C of O=C(c1cc(Cc2n[nH]c(=O)c3ccccc23)ccc1F)N1CCN(C(=O)C2CC2)CC1 + Cc1c(S(C)(=O)=O)c(-c2cc(F)cc(N3CCN(c4ccc(NS(=O)(=O)c5ccc(NC(CCN6CCC(C(=O)OCCCP(=O)(O)O)CC6)CSc6ccccc6)c(S(=O)(=O)C(F)(F)F)c5)cc4)CC3)c2)c(-c2ccc(Cl)cc2)n1C(C)C ; system used: 993429-296-R-J1-PDC complex spheroid growth, percent test/control;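 further: spheroids exposed to compounds for seven days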
### Response 69.8

### Prompt Write viability, T/C of CNC(C)C(=O)NC1CN(S(=O)(=O)c2cccc(S(=O)(=O)N3CCC4CCC(C(=O)NC(c5ccccc5)c5ccccc5)N4C(=O)C(NC(=O)C(C)NC)C3)c2)CCC2CCC(C(=O)NC(c3ccccc3)c3ccccc3)N2C1=O (stereo not given) + Cc1c(S(C)(=O)=O)c(-c2cc(F)cc(N3CCN(c4ccc(NS(=O)(=O)c5ccc(NC(CCN6CCC(C(=O)OCCCP(=O)(O)O)CC6)CSc6ccccc6)c(S(=O)(=O)C(F)(F)F)c5)cc4)CC3)c2)c(-c2ccc(Cl)cc2)n1C(C)C ; system used: 993429-296-R-J1-PDC complex spheroid growth, percent test/control;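 further: spheroids exposed to compounds for seven days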
### Response 54.6

### Prompt Write viability, T/C of O=C(c1cc(Cc2n[nH]c(=O)c3ccccc23)ccc1F)N1CCN(C(=O)C2CC2)CC1 + CNC(C)C(=O)NC1CN(S(=O)(=O)c2cccc(S(=O)(=O)N3CCC4CCC(C(=O)NC(c5ccccc5)c5ccccc5)N4C(=O)C(NC(=O)C(C)NC)C3)c2)CCC2CCC(C(=O)NC(c3ccccc3)c3ccccc3)N2C1=O ; system used: 993429-296-R-J1-PDC complex spheroid growth, percent test/control;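 further: spheroids exposed to compounds for seven days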
### Response 43.6
